Target: human p38 kinase alpha (Homo sapiens, UniProt Q16539)
Construct: The coding region of the human p38 cDNA was obtained by PCR-amplification from RNA isolated from the human monocyte cell line THP.1; GST (N); made in house; host or cells: E. coli DH10B
Sequence (Q16539 whole entry): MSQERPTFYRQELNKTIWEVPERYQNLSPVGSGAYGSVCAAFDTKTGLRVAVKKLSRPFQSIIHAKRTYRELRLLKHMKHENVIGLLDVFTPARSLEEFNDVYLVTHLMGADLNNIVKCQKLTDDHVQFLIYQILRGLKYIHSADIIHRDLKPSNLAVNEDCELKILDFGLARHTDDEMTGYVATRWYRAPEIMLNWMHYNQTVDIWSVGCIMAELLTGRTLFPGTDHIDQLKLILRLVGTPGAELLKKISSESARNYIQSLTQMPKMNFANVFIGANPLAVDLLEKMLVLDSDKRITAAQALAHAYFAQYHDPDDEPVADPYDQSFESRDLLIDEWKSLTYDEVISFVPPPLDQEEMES
Experiment: p38 kinase in vitro assay
Format: biochemical
Conditions: Table I; average of n trials, n=1 if not reported; read-out: p38 Alpha IC50
Categorized via IC50: low-valued = under 400 nM, mid-valued = from 400 nM up to 600 nM, high-valued = 600 nM and over

Examples with answers:
1) Cc1ccc(Cn2ccc(OCc3ccccc3)c(Br)c2=O)cc1 [Q] : low-valued
2) O=c1c(Br)c(OCc2ccc(F)cc2F)ccn1Cc1ccccc1F [M] : low-valued
3) O=c1c(Br)c(OCc2ccc(F)cc2)ccn1Cc1cccnc1 [II] : high-valued

# classify by IC50 band: O=c1c(Br)c(OCc2ccccc2)ccn1Cc1ccccc1F [U]
mid-valued

Band for the recorded IC50 of O=C(O)c1ccc(Cn2ccc(OCc3ccccc3)c(Br)c2=O)cc1 [T] ?
mid-valued

Which class is correct for the following compound? Cc1cc(OCc2ccccc2)c(Br)c(=O)n1-c1c(Cl)cccc1Cl [DD]
mid-valued

// return the class label for Cc1cc(OCc2ccccc2)c(Br)c(=O)n1Cc1ccccc1 [K]
low-valued

Band for the recorded IC50 of O=c1c(Br)c(OCc2ccc(F)cc2F)ccn1Cc1ccc(F)cc1F [JJ] ?
high-valued

Quick check: band for O=c1c(Br)c(OCc2cccc(Cl)c2)ccn1Cc1cccc(F)c1 [AA]
high-valued

The entry to classify is O=c1c(Cl)c(OCc2ccccc2)ccn1Cc1ccccc1 [X] ; which class holds it?
mid-valued

Field: class (IC50) — entry: O=c1c(I)c(OCc2ccc(F)cc2)ccn1Cc1cccc(F)c1 [HH]
high-valued

Data credit: patent US20070088033A1
